Consider the following compounds and their measured IC50 readings.
# target_system: Farnesyl pyrophosphate synthase (Homo sapiens)
# Sequence (P14324 whole entry): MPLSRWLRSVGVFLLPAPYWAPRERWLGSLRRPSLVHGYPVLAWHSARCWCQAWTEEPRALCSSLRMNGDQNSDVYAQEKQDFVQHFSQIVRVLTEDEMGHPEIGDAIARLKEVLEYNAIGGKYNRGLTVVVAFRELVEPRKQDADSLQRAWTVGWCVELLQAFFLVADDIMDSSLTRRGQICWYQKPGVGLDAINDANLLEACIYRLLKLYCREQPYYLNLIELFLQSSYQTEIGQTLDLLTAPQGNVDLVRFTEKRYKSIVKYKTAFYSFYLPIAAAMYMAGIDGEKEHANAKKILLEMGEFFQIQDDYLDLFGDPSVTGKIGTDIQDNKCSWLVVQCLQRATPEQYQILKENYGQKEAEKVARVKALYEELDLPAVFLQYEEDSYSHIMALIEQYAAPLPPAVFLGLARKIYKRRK
recorded_metric: IC50 (nM)

In [3]: df
Out[3]:
                    structure_smiles_string   u  recorded_measurement
0                       O=P(O)(O)CCc1cccnc1  nM                   200
1  Cc1ccc(-c2cc3c(NC(P(=O)(O)O)P(=O)(O)O)ncnc3s2)cc1  nM                   200
